This collection of values is drawn from the supplement of paper PMC12042874.

experiment: amyloid nucleation score (Sup35N fusion, yeast selection) (log enrichment); library NNK3; higher = more nucleation; inactive = no reads after selection;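 note: zero at mode of non-aggregating sequences after 7 days selection at 30°C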
ENDPOINT_LABEL: amyloid nucleation score

- SUBSTANCE: "VLDLCDVY"
  OBS_VALUE: "inactive"
- SUBSTANCE: "TQFTLCTIHSVLCVNA"
  OBS_VALUE: 2.06
- SUBSTANCE: "VFVKCWNVGSCIATDEYMSE"
  OBS_VALUE: 2.2
- SUBSTANCE: "VWNFFSMGSFSVDC"
  OBS_VALUE: 1.28
- SUBSTANCE: "SNIGVGKTYHRCTFFFWLIC"
  OBS_VALUE: 0.989
- SUBSTANCE: "SCFISSMYFASWKFRISNGV"
  OBS_VALUE: "inactive"
- SUBSTANCE: "SLAVGLLNCLL"
  OBS_VALUE: 2.17
- SUBSTANCE: "LKFFVYLLNLYEDFLPVRFS"
  OBS_VALUE: "inactive"
- SUBSTANCE: "LIWQGCV"
  OBS_VALUE: "inactive"
- SUBSTANCE: "VVLVFLRVTRYPSQKMVSAL"
  OBS_VALUE: "inactive"
- SUBSTANCE: "EVSHSVEQYFSFMCHHTWAP"
  OBS_VALUE: "inactive"
- SUBSTANCE: "LTSLSKSFCNNVHAYSDFLH"
  OBS_VALUE: "inactive"
- SUBSTANCE: "GMYGMSGMV"
  OBS_VALUE: "inactive"
- SUBSTANCE: "PGVTSMSLSYPGFWVSPS"
  OBS_VALUE: "inactive"
- SUBSTANCE: "RIMLVYCMGSRGIAMFCQHN"
  OBS_VALUE: "inactive"
- SUBSTANCE: "MSGLENVACDYKRELAMKRS"
  OBS_VALUE: "inactive"
- SUBSTANCE: "TCGVVSPRGMSNMLCLGGWS"
  OBS_VALUE: "inactive"
- SUBSTANCE: "GYDVRL"
  OBS_VALUE: "inactive"
- SUBSTANCE: "HNNIAFSLVVNDESVLWCFN"
  OBS_VALUE: 1.97
- SUBSTANCE: "TDVYHQNAQYHRVYNLQGRV"
  OBS_VALUE: "inactive"
- SUBSTANCE: "RERIYAELFSSWRRSAKGIF"
  OBS_VALUE: "inactive"
- SUBSTANCE: "VLEYHTQPWGLAQRQTWLSG"
  OBS_VALUE: "inactive"
- SUBSTANCE: "VVPIVWHTGSSRVYTEGVLM"
  OBS_VALUE: -0.65
- SUBSTANCE: "YLLLDEVRSKYCWGISCTGY"
  OBS_VALUE: "inactive"
- SUBSTANCE: "IERGSDFLLHAMAYSFIGCL"
  OBS_VALUE: -0.416
- SUBSTANCE: "GLCHMFGYDFTSMNCSSPGA"
  OBS_VALUE: "inactive"
- SUBSTANCE: "FPYVLVSTPVSPPICW"
  OBS_VALUE: "inactive"
- SUBSTANCE: "NVCGNDGNR"
  OBS_VALUE: "inactive"
- SUBSTANCE: "GFLKCVGVRLDDSRGVVCAT"
  OBS_VALUE: "inactive"
- SUBSTANCE: "NDCLFNKILAVRSFTLLAGK"
  OBS_VALUE: "inactive"
- SUBSTANCE: "DVLRVPMNEVTNWSIPPY"
  OBS_VALUE: "inactive"
- SUBSTANCE: "YRILRRYSDPAHEDIKRCTL"
  OBS_VALUE: "inactive"
- SUBSTANCE: "GCFVNN"
  OBS_VALUE: "inactive"
- SUBSTANCE: "AVISNRFYEEKLYDATYLRL"
  OBS_VALUE: "inactive"
- SUBSTANCE: "MKEDSSYHWRLPHVTSTFVG"
  OBS_VALUE: "inactive"
- SUBSTANCE: "YHCNGPGSLWSTNLACRSME"
  OBS_VALUE: "inactive"
- SUBSTANCE: "LKQDVKTAVFFFGVD"
  OBS_VALUE: 1.1
- SUBSTANCE: "VSDLEERSSILG"
  OBS_VALUE: "inactive"
- SUBSTANCE: "WINNIAPPYGQ"
  OBS_VALUE: "inactive"
- SUBSTANCE: "CFGRSGPW"
  OBS_VALUE: "inactive"
- SUBSTANCE: "FDGFLNFVITSRSNVF"
  OBS_VALUE: "inactive"
- SUBSTANCE: "SVSVLV"
  OBS_VALUE: "inactive"
- SUBSTANCE: "CCMVYGGYMM"
  OBS_VALUE: "inactive"
- SUBSTANCE: "AMHHSNRSKPVSVIRWMWRC"
  OBS_VALUE: "inactive"
- SUBSTANCE: "MERVRGRRMGVIVAFDVDGW"
  OBS_VALUE: 1.11
- SUBSTANCE: "FVYQYYV"
  OBS_VALUE: "inactive"
- SUBSTANCE: "MYTKNPSVSILCFDENGERA"
  OBS_VALUE: "inactive"
- SUBSTANCE: "FLGDSTNGRRFFSEFRSEWG"
  OBS_VALUE: 0.964
- SUBSTANCE: "GSICYHGWTFKGKVKILNGI"
  OBS_VALUE: "inactive"
- SUBSTANCE: "RACCLFQGDWQERLDSISFA"
  OBS_VALUE: "inactive"
- SUBSTANCE: "RPSSVDRLGSRDIRG"
  OBS_VALUE: -0.413
- SUBSTANCE: "NLFYDFFDYMVSRARGGRVC"
  OBS_VALUE: "inactive"
- SUBSTANCE: "CMRYVGSPDNRHWASGKGIP"
  OBS_VALUE: "inactive"
- SUBSTANCE: "FLSDSNT"
  OBS_VALUE: "inactive"
- SUBSTANCE: "TTRRSTYGFEIKYILIVFVH"
  OBS_VALUE: "inactive"
- SUBSTANCE: "MCDGFVVVNLILFWKVEMI"
  OBS_VALUE: "inactive"
- SUBSTANCE: "SVVRVCSSCIVDYRMCESK"
  OBS_VALUE: 0.927
- SUBSTANCE: "YMKDALNLRPLRSSTALFLS"
  OBS_VALUE: "inactive"
- SUBSTANCE: "NNLTKM"
  OBS_VALUE: "inactive"
- SUBSTANCE: "SYVAVPR"
  OBS_VALUE: "inactive"
- SUBSTANCE: "FFENWKLGDFAYRRIGTLLK"
  OBS_VALUE: -0.515
